Taken from patent EP0720987A1.

Exercise: state measured pIC50 for each of the molecules provided.
- Target Desc: HIV-1-Protease (Human immunodeficiency virus type 1 group M subtype B, UniProt P04585)
- Construct: Gereinigte HIV-Protease wurde mit synthetischem Peptid
- Protocol Text: HIV-specific protease enzyme test (cleavage of synthetic peptide by purified HIV protease, RP-HPLC analysis)
- Protocol Conditions: synthetic peptide substrate imitating Gag precursor cleavage site, read-out: HIV-1-Protease-Inhibition IC50
Give bare numbers, as −log10 of the molar value.

For each of the items listed, what is its pIC50?
1. CCOC(=O)CCC(=O)O[C@H](CN1[C@H](C(F)(F)F)C[C@@H]2CCC[C@@H]21)[C@H](Cc1ccccc1)NC(=O)[C@H](CC(N)=O)NC(=O)c1ccc2ccccc2n1 [Beispiel 1]
2. CC(=O)O[C@H](CN1[C@H](C(F)(F)F)C[C@@H]2CCC[C@@H]21)[C@H](Cc1ccccc1)NC(=O)[C@H](CC(N)=O)NC(=O)c1ccc2ccccc2n1 [Beispiel 2]
3. CC(=O)O[C@H](CN1[C@H](C(F)(F)F)C[C@@H]2CCC[C@@H]21)[C@H](Cc1ccccc1)NC(=O)[C@H](CC(N)=O)NC(=O)c1cnc2cc(C)c(C)cc2n1 [Beispiel 3]

1: 3.49; 2: 5.96; 3: 8.82
